Values from the supplement of paper PMC13380429

# System: Vero E6
# experiment: drug sensitivity score (DSS) for viability; higher = more toxic; extreme values may be limits of the assay
# conditionSummary: 72 h
quantity: drug sensitivity score
I'd appreciate a reply containing only the number, no unit.

As a guide, the following entries are already answered.
[
  {
    "compound": "COC(=O)C1=C(C)NC(C)=C(C(=O)OC/C=C/c2ccccc2)C1c1cccc([N+](=O)[O-])c1 (stereo unspecified) [pranidipine]",
    "drug sensitivity score": 0
  },
  {
    "compound": "O[C@@H](Cc1ccncc1)C(Cl)(Cl)Cl [PETCM]",
    "drug sensitivity score": 0
  },
  {
    "compound": "C=CCN1CC[C@]23c4c5ccc(O)c4O[C@H]2/C(=N/NC(=O)c2ccccc2)CC[C@@]3(O)[C@H]1C5 [naloxone-benzoylhydrazone]",
    "drug sensitivity score": 0
  }
]

The compound CCCCC(=O)O[C@]1(C(=O)CO)[C@@H](C)C[C@H]2[C@@H]3CCC4=CC(=O)C=C[C@]4(C)[C@@]3(F)[C@@H](O)C[C@@]21C [BETAMETHASONE VALERATE] , tested on Vero E6, showed drug sensitivity score of 0

The compound N[C@H](Cc1cc(I)c(Oc2ccc(O)c(I)c2)c(I)c1)C(=O)O [liothyronine-(isomer)] , tested on Vero E6, showed drug sensitivity score of 0

The compound CC(C)/N=c1\cc2n(-c3ccc(Cl)cc3)c3ccccc3nc-2cc1Nc1ccc(Cl)cc1 [clofazimine] , tested on Vero E6, showed drug sensitivity score of 0

The compound CCCCC(=O)NCCc1c(Cc2ccccc2)[nH]c2ccccc12 [DH-97] , tested on Vero E6, showed drug sensitivity score of 0

The compound O=C(Nc1ccc(S(=O)(=O)C(F)(F)F)cc1)C1=CCN(c2ncccc2C(F)(F)F)CC1 , tested on Vero E6, showed drug sensitivity score of 0.7

The compound CCC1(CC)C(=O)C=CNC1=O [pyrithyldione] , tested on Vero E6, showed drug sensitivity score of 0

The compound CC1(C)CC[C@]2(C(=O)O)CC[C@]3(C)[C@H](C(=O)C=C4[C@@]5(C)C=C(C#N)C(=O)C(C)(C)[C@@H]5CC[C@]43C)[C@@H]2C1 [bardoxolone] , tested on Vero E6, showed drug sensitivity score of 4.2

The compound CCN(CC)CCCCN1c2ccccc2Oc2ccc(Cl)cc21 [10-DEBC] , tested on Vero E6, showed drug sensitivity score of 3

* * *

# System: Vero E6
# experiment: cell viability relative to DMSO; higher = less toxic
# conditionSummary: 72 h; 100 nM
quantity: cell viability (%)
Express your answer in %, writing the number without its unit.

As a guide, the following entries are already answered.
[
  {
    "compound": "C=CCC1(CC(C)C)C(=O)NC(=O)NC1=O",
    "cell viability / %": 118
  },
  {
    "compound": "NS(=O)(=O)c1cc(C(=O)O)cc(N2CCCC2)c1Oc1ccccc1 [piretanide]",
    "cell viability / %": 93.3
  },
  {
    "compound": "CCc1nc(-c2cccc(C)c2)c(-c2ccnc(NC(=O)c3ccccc3)c2)s1",
    "cell viability / %": 94.8
  }
]

Sure, the documented cell viability for CN(C)C(=O)c1ccc(S(=O)(=O)c2ccc(NC(=O)[C@@](C)(O)C(F)(F)F)c(Cl)c2)cc1 is 99.7

Sure, the documented cell viability for O=C(Oc1ccc([N+](=O)[O-])cc1)N1CCC(C(O)(c2ccc3c(c2)OCO3)c2ccc3c(c2)OCO3)CC1 is 91.9
